# credit: patent US6872850B2

Test system: 3′ UTR of the TNFα gene
Experiment: cell-based luciferase reporter assay, 5B cell line (luciferase gene with entire 3′ UTR of the TNFα gene)
Set-up: species or system mouse
Run parameters: 10 μM compound; ratio of 5B to control 3B cell line
Description: The candidate compounds were tested in a high-throughput, cell-based luciferase reporter assay. […] […] Luciferase activity was measured by determining the luminescence intensity due to the reaction of lucifern, ATP, Mg^2+, and molecular O2 (see, for example, Ausubel et al., supra). […]
Quick reference: Luciferase 5B/3B (% of DMSO control 5B)/(% of DMSO control 3B) of the listed items.

{"Molecule": "CC(C)CC(NC(=O)c1ccc(C(=NNC(=N)N)c2ccccc2)cc1)C(=O)N1CCN(C(=O)C(Cc2ccccc2)NC(=O)c2ccccc2)CC1 (stereo not drawn) [MES 10248]", "Value measured": "72 (% of DMSO control 5B)/(% of D"}

Next item in the queue.
Item under review: CC(NC(=O)c1ccc(C(=O)c2ccccc2)cc1)C(=O)N1CCN(C(=O)CCC(=O)N2CCN(c3ccccc3)CC2)CC1 (stereo not drawn) . Reported Luciferase 5B/3B (% of DMSO control 5B)/(% of DMSO control 3B)? 64 (% of DMSO control 5B)/(% of D
